Assay: gradient 5% acetonitrile 3 min, to 50% in 2 min, to 85% in 15 min, held 3 min, 100 µL/min
Conditions: column: Zorbax Extend-C18 2.1 x 50 mm; eluents: water / acetonitrile, 0.1% formic acid
Collected RP-LC retention time values appear next to each entry.
Output spec: scalar in s, unitless text.

Reference set (3 entries):
CNC(=O)Cn1nc(C2CCN(C(=O)c3ccc(F)cc3)CC2)c2c1CCOC2    614
CCCNC(=O)CCc1nc2ccccc2n(CC(=O)NC(C)CC)c1=O (stereo unspecified)    688
CCc1noc(NC(C)=O)c1-c1ccc(OC)c(S(=O)(=O)Nc2cccc(C#N)c2)c1    738

Recorded result, CN(C)CCn1cc(C(=O)NCc2cccs2)ccc1=O , RP-LC retention time: 578

Short answer for Cc1ccccc1C(=O)CC1(O)C(=O)Nc2ccc(Br)cc21 (stereo unspecified) : RP-LC retention time was 804

Sample CCCNC(=O)CCNc1c(-c2ccc(C)cc2)nc2cnccn12 ; RP-LC retention time observed: 654

For COc1ccc(-c2ccnc3nc(C(C)C)nn23)cc1 the compound record lists RP-LC retention time as 845

For record COc1ccc(-c2cn3ccn(-c4cc(C)c(Cl)cc4OC)c(=O)c3n2)cc1 the listed RP-LC retention time is 924

The value of RP-LC retention time measured for the compound Cc1nn(CC(=O)NCCCN(C)C2CCCCC2)c(=O)c2nn(-c3ccccc3)c(C)c12 turned out to be 634

* * *

Assay: gradient 5% acetonitrile 3 min, to 50% in 2 min, to 85% in 15 min, held 3 min, 100 µL/min
Conditions: column: Zorbax Extend-C18 2.1 x 50 mm; eluents: water / acetonitrile, 0.1% formic acid
Recorded measurements of RP-LC retention time, one per entry
Respond numerically; units are s and should not be typed.

Sample records with RP-LC retention time:
COc1ccc(OCc2noc(CNC(=O)CSc3nc4ccccc4s3)n2)cc1    855
CC1(C(=O)NCc2ccc(F)cc2)CN(S(C)(=O)=O)CC(=O)N1CCCc1ccccc1 (stereo not given)    882
O=c1n(Cc2ccc3c(c2)OCO3)nc2c(-c3nc(-c4ccccc4)no3)cccn12    944
O=C1CC(c2nc(-c3ccc4c(c3)OCO4)no2)CN1c1cccc(Cl)c1 (stereo not given)    999
COc1ccc(-c2csc(Nc3ccccc3)n2)cc1    1070

// field: RP-LC retention time; key: Cc1ccc(-c2noc(C3CCCN3C(=O)c3ccc(C(C)C)cc3)n2)cc1 (stereo not given) ; value = 1210

Looking up O=C(Cc1ccccc1)Nc1cccc(C(=O)Nc2ccccc2C(=O)O)c1 , I see its RP-LC retention time listed as 830

Data point: CN(C)CCNCc1ccc(-c2ccc(Cl)cc2Cl)o1 ; RP-LC retention time = 609

Recorded result, CCC(C)C(=O)N1CCCN(C2=NS(=O)(=O)C(c3ccc(C)cc3)=C2C)CC1 (stereo not given) , RP-LC retention time: 828

Form: molecule = Cc1ncc(-c2ccnc(Nc3ccc(S(C)(=O)=O)cc3)n2)n1C(C)C ; RP-LC retention time = 636

* * *

Test: gradient 5% acetonitrile 3 min, to 50% in 2 min, to 85% in 15 min, held 3 min, 100 µL/min
Conditions: column: Zorbax Extend-C18 2.1 x 50 mm; eluents: water / acetonitrile, 0.1% formic acid
# note: exactly 800 s is not below, so it is criterion not met; use criterion met for RP-LC retention time strictly under it

hey, is RP-LC retention time for CCn1cc(-c2ccncc2)cc1C(=O)NCc1cc(C)ccc1C lower than 800 s or not?
criterion met

hey, is RP-LC retention time for O=C(Cn1nc2c(c1NC(=O)c1c(F)cccc1Cl)CSC2)NCc1ccco1 lower than 800 s or not?
criterion met

Report whether reported RP-LC retention time is lower than 800 s (strictly) for Cn1ncc2c(N3CCSCC3)nc(C(=O)NCCc3cccs3)nc21
criterion not met

Threshold test, RP-LC retention time < 800 s: Cc1cc([N+](=O)[O-])ccc1NS(=O)(=O)c1cc(Cl)ccc1Cl
criterion not met

Strictly below 800 s: is that where RP-LC retention time of CCn1cc(C)c(C(=O)O)c1CC(=O)NCc1cccs1 sits?
criterion met
